systemTested: DLG4_1, P78352
Sequence (P78352 62-152): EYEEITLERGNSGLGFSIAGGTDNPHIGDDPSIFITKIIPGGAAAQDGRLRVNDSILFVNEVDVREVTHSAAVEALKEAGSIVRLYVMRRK
protocolText: holdup assay
Design: key: below the threshold = too weak to quantify, mostly under pKd 3.1 to 4
setupConditions: plain residues with an end cap or a label only (N-terminal biotin on a linker: ttds)
measureName: pKd

VDFPPKESSL [ACVR2A, P27037] :: below the threshold
NDPAWDETNL [ARHGEF7, Q14155;Q14155-1] :: below the threshold
RPLPRKVSQL [DOCK4, Q8N1I0] :: below the threshold
DKDPHSETAL [TMIGD1, Q6UXZ0] :: below the threshold
